- target desc: HLA-A*24:02
- measurement description: IEDB peptide-MHC binding, purified MHC/competitive/fluorescence; filed as Kd, often an IC50 or EC50 that approximates it; bounds were set here for any values at or beyond the usual limits of such assays
- stated conditions: source organism: Bacillus anthracis str. A0488
assay metric: Kd

- construct sequence: "WYAPVALLF"
  endpoint result: "≤ 0.1 nM"

* * *

- target desc: HLA-A*26:01
- measurement description: IEDB peptide-MHC binding, purified MHC/direct/fluorescence; filed as Kd, often an IC50 or EC50 that approximates it; bounds were set here for any values at or beyond the usual limits of such assays
- stated conditions: source organism: Coxiella burnetii Q321
pKd: −log10 of the molar value.
assay metric: pKd

- construct sequence: "EIYRTLYGL"
  target desc: "HLA-A*26:01"
  assay metric: "pKd"
  endpoint result: 7.17

* * *

- target desc: HLA-A*69:01
- measurement description: IEDB peptide-MHC binding, purified MHC/direct/fluorescence; filed as Kd, often an IC50 or EC50 that approximates it; bounds were set here for any values at or beyond the usual limits of such assays
- stated conditions: source organism: Rickettsia sibirica 246

- construct sequence: "EFVSANLAM"
  Kd: "≥ 20 µM"

* * *

- target desc: HLA-A*24:02
- measurement description: IEDB peptide-MHC binding, purified MHC/competitive/radioactivity; filed as Kd, often an IC50 or EC50 that approximates it; bounds were set here for any values at or beyond the usual limits of such assays
- stated conditions: source organism: Mammarenavirus brazilense
pKd: −log10 of the molar value.

- construct sequence: "EYGFTRRFKF"
  pKd: 6.87

* * *

- target desc: HLA-A*26:01
- measurement description: IEDB peptide-MHC binding, purified MHC/competitive/fluorescence; filed as Kd, often an IC50 or EC50 that approximates it; bounds were set here for any values at or beyond the usual limits of such assays
- stated conditions: source organism: Reston ebolavirus

- construct sequence: "LPRERFRKT"
  target desc: "HLA-A*26:01"
  Kd: "≥ 20 µM"

* * *

- target desc: HLA-A*31:01
- measurement description: IEDB peptide-MHC binding, purified MHC/competitive/fluorescence; filed as Kd, often an IC50 or EC50 that approximates it; bounds were set here for any values at or beyond the usual limits of such assays
- stated conditions: source organism: Influenza A virus (A/Bangkok/10/1983(H1N1))

- construct sequence: "KLRMVTGLR"
  Kd / nM: 45.1

* * *

- target desc: HLA-A*11:01
- measurement description: IEDB peptide-MHC binding, purified MHC/direct/fluorescence; filed as Kd, often an IC50 or EC50 that approximates it; bounds were set here for any values at or beyond the usual limits of such assays
- stated conditions: source organism: Pseudomonas aeruginosa

- construct sequence: "ALEPGFKDY"
  Kd: "≥ 20 µM"

* * *

- target desc: HLA-A*01:01
- measurement description: IEDB peptide-MHC binding, purified MHC/competitive/radioactivity; filed as Kd, often an IC50 or EC50 that approximates it; bounds were set here for any values at or beyond the usual limits of such assays
- stated conditions: source organism: Mammarenavirus guanaritoense
pKd: −log10 of the molar value.

- construct sequence: "PSLCRVNNSY"
  pKd: 5.91

* * *

- target desc: HLA-B*53:01
- measurement description: IEDB peptide-MHC binding, purified MHC/competitive/radioactivity; filed as Kd, often an IC50 or EC50 that approximates it; bounds were set here for any values at or beyond the usual limits of such assays
- stated conditions: source organism: Lymphocytic choriomeningitis virus (strain WE)
pKd: −log10 of the molar value.
assay metric: pKd

- construct sequence: "MPEWVNFKF"
  assay metric: "pKd"
  endpoint result: 7.70

* * *

- target desc: HLA-A*31:01
- measurement description: IEDB peptide-MHC binding, purified MHC/competitive/fluorescence; filed as Kd, often an IC50 or EC50 that approximates it; bounds were set here for any values at or beyond the usual limits of such assays
- stated conditions: source organism: Cryptosporidium parvum Iowa II
pKd: −log10 of the molar value.
assay metric: pKd

- construct sequence: "RGRKPIFRK"
  endpoint result: 7.27

* * *

- target desc: HLA-B*35:01
- measurement description: IEDB peptide-MHC binding, purified MHC/competitive/fluorescence; filed as Kd, often an IC50 or EC50 that approximates it; bounds were set here for any values at or beyond the usual limits of such assays
- stated conditions: source organism: Bacillus anthracis str. A2012
pKd: −log10 of the molar value.

- construct sequence: "FVAAGAFHM"
  pKd: 8.43

* * *

- target desc: HLA-A*02:01
- measurement description: IEDB peptide-MHC binding, purified MHC/competitive/fluorescence; filed as Kd, often an IC50 or EC50 that approximates it; bounds were set here for any values at or beyond the usual limits of such assays
- stated conditions: source organism: Cryptosporidium parvum Iowa II

- construct sequence: "RGRKPIFRK"
  target desc: "HLA-A*02:01"
  Kd: "≥ 20 µM"

* * *

- target desc: HLA-C*14:02
- measurement description: IEDB peptide-MHC binding, purified MHC/direct/fluorescence; filed as Kd, often an IC50 or EC50 that approximates it; bounds were set here for any values at or beyond the usual limits of such assays
- stated conditions: source organism: Yersinia pestis CO92
pKd: −log10 of the molar value.
assay metric: pKd

- construct sequence: "KIMQVDRPM"
  assay metric: "pKd"
  endpoint result: 6.99

* * *

Recorded Kd values for a group of sequences are listed next.
- target desc: HLA-B*44:03
- measurement description: IEDB peptide-MHC binding, purified MHC/competitive/radioactivity; filed as Kd, often an IC50 or EC50 that approximates it; bounds were set here for any values at or beyond the usual limits of such assays
- stated conditions: source organism: Mammarenavirus brazilense

- construct sequence: "QDPLLGTLS"
  target desc: "HLA-B*44:03"
  Kd: "≥ 30.4 µM"
- construct sequence: "ADMSKLISL"
  target desc: "HLA-B*44:03"
  Kd: "≥ 33.6 µM"
- construct sequence: "GDEALRGFL"
  target desc: "HLA-B*44:03"
  Kd: "≥ 36.1 µM"

* * *

- target desc: HLA-B*15:17
- measurement description: IEDB peptide-MHC binding, purified MHC/direct/fluorescence; filed as Kd, often an IC50 or EC50 that approximates it; bounds were set here for any values at or beyond the usual limits of such assays
- stated conditions: source organism: Coxiella burnetii
pKd: −log10 of the molar value.

- construct sequence: "EIYRTLYGL"
  pKd: 6.42

* * *

- target desc: HLA-A*02:01
- measurement description: IEDB peptide-MHC binding, purified MHC/competitive/radioactivity; filed as Kd, often an IC50 or EC50 that approximates it; bounds were set here for any values at or beyond the usual limits of such assays
- stated conditions: source organism: Hepatitis B virus
assay metric: Kd

- construct sequence: "GLSRYVAR"
  assay metric: "Kd"
  endpoint result: "≥ 50 µM"

* * *

- target desc: HLA-A*02:01
- measurement description: IEDB peptide-MHC binding, purified MHC/direct/fluorescence; filed as Kd, often an IC50 or EC50 that approximates it; bounds were set here for any values at or beyond the usual limits of such assays
- stated conditions: source organism: Brucella abortus

- construct sequence: "GRDHVRVTL"
  Kd: "≥ 20 µM"

* * *

- target desc: HLA-B*35:01
- measurement description: IEDB peptide-MHC binding, purified MHC/competitive/radioactivity; filed as Kd, often an IC50 or EC50 that approximates it; bounds were set here for any values at or beyond the usual limits of such assays
- stated conditions: source organism: Dengue virus 3 Martinique/1243/1999
pKd: −log10 of the molar value.

- construct sequence: "FPQSNAPIQD"
  target desc: "HLA-B*35:01"
  pKd: 5.95
- construct sequence: "LPVCQSSSMR"
  target desc: "HLA-B*35:01"
  pKd: 6.48

* * *

- target desc: HLA-A*69:01
- measurement description: IEDB peptide-MHC binding, purified MHC/direct/fluorescence; filed as Kd, often an IC50 or EC50 that approximates it; bounds were set here for any values at or beyond the usual limits of such assays
- stated conditions: source organism: Bacillus anthracis
assay metric: Kd

- construct sequence: "REFEAQNVP"
  target desc: "HLA-A*69:01"
  assay metric: "Kd"
  endpoint result: "≥ 20 µM"

* * *

Recorded Kd values for a group of sequences are listed next.
- target desc: HLA-A*31:01
- measurement description: IEDB peptide-MHC binding, purified MHC/direct/fluorescence; filed as Kd, often an IC50 or EC50 that approximates it; bounds were set here for any values at or beyond the usual limits of such assays
- stated conditions: source organism: Mycobacterium tuberculosis

- construct sequence: "RPRLHSISF"
  Kd: "≥ 20 µM"
- construct sequence: "RPAGARAAF"
  Kd: "≥ 20 µM"

* * *

- target desc: HLA-A*02:11
- measurement description: IEDB peptide-MHC binding, purified MHC/direct/fluorescence; filed as Kd, often an IC50 or EC50 that approximates it; bounds were set here for any values at or beyond the usual limits of such assays
- stated conditions: source organism: Zaire ebolavirus

- construct sequence: "TPSHYSGNI"
  Kd: "≥ 20 µM"

This collection of values is drawn from the Immune Epitope Database (IEDB).
